Source listed as BindingDB's records for doi:10.1016/j.bmcl.2009.07.083.

Below are IC50 values measured for Potassium voltage-gated channel subfamily A member 5 (Homo sapiens).

{"COMPOUND": "CCCCc1nnc(C2C(C)=Nc3ccnn3C2c2ccc(Cl)c(Cl)c2)o1 (centres undefined)", "READOUT_KIND": "IC50", "RESULT": "> 1000 nM"}
{"COMPOUND": "CC(=O)Nc1ccc2c(c1)nc(C1C(C)=Nc3ccnn3C1c1ccc(Cl)c(Cl)c1)n2C (centres undefined)", "READOUT_KIND": "IC50", "RESULT": "> 1000 nM"}
{"COMPOUND": "CC1=Nc2ccnn2C(c2ccc(Cl)c(Cl)c2)C1c1ncc(-c2ccccc2)o1 (centres undefined)", "READOUT_KIND": "IC50", "RESULT": "> 1000 nM"}

Field: next compound
Qu. Which IC50 is listed for CC1=Nc2ccnn2C(c2ccc(Cl)c(Cl)c2)C1c1nc2cccc(F)c2n1C (centres undefined) ?
Ans. 150 nM
